For each of the binders below, state its variant/HC_D62R.
Target: T1, mouse tissue factor pathway inhibitor (TFPI) (mouse, UniProt O54819 29-289, limits assumed)
T1 construct: bought; also called mTFPI; murine TFPI
T1 sequence (looked up): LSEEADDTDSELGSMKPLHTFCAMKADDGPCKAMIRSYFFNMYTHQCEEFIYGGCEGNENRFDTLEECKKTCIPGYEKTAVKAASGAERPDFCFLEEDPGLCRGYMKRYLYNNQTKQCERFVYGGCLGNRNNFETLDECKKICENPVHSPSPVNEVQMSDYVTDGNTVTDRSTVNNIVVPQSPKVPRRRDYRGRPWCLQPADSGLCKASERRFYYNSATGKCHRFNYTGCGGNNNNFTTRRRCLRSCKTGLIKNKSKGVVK
Assay: competitive ELISA
Answers are plain numbers, in ratio.

Completed entries (count: 2):
binder="4B7 HC N32D+D62Q+Y112D/LC F31I+D33F+N35I+T36N (Fab, V domains shown) VH: QVQLQQSGPGLVKPSQTLSLTCAISGDSVSSDSAAWSWIRQSPGRGLEWLGIIYKRSKWYNQYAVSVKSRITINPDTSKNQFSLQLNSVTPEDTAVYYCARWHSDKHWGFDDWGQGTLVTVSS VL: DIVMTQSPLSLPVTPGEPASISCRSSQSLVISFGINYLNWYLQKPGQSPQLLIYKGSNRASGVPDRFSGSGSGTDFTLKISRVEAEDVGVYYCQQYDSYPLTFGQGTKVEIKR" experimental_readout=variant/HC_D62R reported_result=46.3
binder="B9.7 (4B7 HC N32D+D62R+Y112D/LC S32R+N35I) (Fab, V domains shown) VH: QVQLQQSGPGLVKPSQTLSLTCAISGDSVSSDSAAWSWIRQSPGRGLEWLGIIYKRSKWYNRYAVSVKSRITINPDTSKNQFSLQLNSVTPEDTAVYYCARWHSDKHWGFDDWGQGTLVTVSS VL: DIVMTQSPLSLPVTPGEPASISCRSSQSLVFRDGITYLNWYLQKPGQSPQLLIYKGSNRASGVPDRFSGSGSGTDFTLKISRVEAEDVGVYYCQQYDSYPLTFGQGTKVEIKR" experimental_readout=variant/HC_D62R reported_result=30.1

Request: So what does the record say about variant/HC_D62R for 4B7 HC N32D+D62Q+H107M+Y112D/LC F31I+S32R+D33R+N35I+D97T (Fab, V domains shown) VH: QVQLQQSGPGLVKPSQTLSLTCAISGDSVSSDSAAWSWIRQSPGRGLEWLGIIYKRSKWYNQYAVSVKSRITINPDTSKNQFSLQLNSVTPEDTAVYYCARWHSDKMWGFDDWGQGTLVTVSS VL: DIVMTQSPLSLPVTPGEPASISCRSSQSLVIRRGITYLNWYLQKPGQSPQLLIYKGSNRASGVPDRFSGSGSGTDFTLKISRVEAEDVGVYYCQQYTSYPLTFGQGTKVEIKR ?
Response: 11.5
